Assay: Pharmacokinetics after 21 days dosing in the efficacy study (plasma, tumor and brain concentrations; plasma AUC at steady state), Example 14
Assay type: in vivo, female BALB/c nude mice
Conditions: mouse, plasma, po; 2 mg/kg p.o. TID x 21 days; 1 h; mean ± SEM

{"columns": ["smiles.str", "measurement.unit", "concentration at 1 h"],
 "data": [
  ["CCN(C)S(=O)(=O)Nc1ccc(F)c(Oc2ccc3ncn([C@H]4COC5(CCN(C6CC7(C6)CN(c6cc8c(cc6F)c(N6CCC(=O)NC6=O)nn8C)C7)CC5)C4)c(=O)c3c2)c1C#N", "ng/mL", 5420]
]}

###

Assay: Pharmacokinetics in female BALB/c nude mice bearing A375 xenografts, 1 day dosing (PK and PD study): plasma, tumor and brain concentrations, AUC
Type: in vivo
Conditions: mouse, tumor, po, 10 mg/kg, 10 mg/kg p.o. BID × 1 day; post 2nd dose; 24 h; read-out: Mean Concentration in Tumor ± SEM
measurement.type: concentration at 24 h (ng/g)

{"columns": ["smiles.str", "readout.value"],
 "data": [
  ["CCN(C)S(=O)(=O)Nc1ccc(F)c(Oc2ccc3ncn([C@H]4COC5(CCN(C6CC7(C6)CN(c6cc8c(cc6F)c(N6CCC(=O)NC6=O)nn8C)C7)CC5)C4)c(=O)c3c2)c1C#N", 624]
]}
